biological target: dopamine D2 (Rattus norvegicus); construct: P2 fraction (synaptosomal membranes) prepared from male, Wistar rats; from tissue; host or cells: rat (Wistar, male) striatum, P2 synaptosomal membranes; test: Receptor Binding Assay, dopamine D2 (3H-spiperone, P2 fraction from striatum); parameters: species or system male, Wistar rats; conditions: 3H-spiperone 0.05 nM, rat striatum P2 fraction, pH 7.5, 45 min, 37° C.; read-out: Receptor Binding, Ki, D-2
Sequence (P61169 whole entry): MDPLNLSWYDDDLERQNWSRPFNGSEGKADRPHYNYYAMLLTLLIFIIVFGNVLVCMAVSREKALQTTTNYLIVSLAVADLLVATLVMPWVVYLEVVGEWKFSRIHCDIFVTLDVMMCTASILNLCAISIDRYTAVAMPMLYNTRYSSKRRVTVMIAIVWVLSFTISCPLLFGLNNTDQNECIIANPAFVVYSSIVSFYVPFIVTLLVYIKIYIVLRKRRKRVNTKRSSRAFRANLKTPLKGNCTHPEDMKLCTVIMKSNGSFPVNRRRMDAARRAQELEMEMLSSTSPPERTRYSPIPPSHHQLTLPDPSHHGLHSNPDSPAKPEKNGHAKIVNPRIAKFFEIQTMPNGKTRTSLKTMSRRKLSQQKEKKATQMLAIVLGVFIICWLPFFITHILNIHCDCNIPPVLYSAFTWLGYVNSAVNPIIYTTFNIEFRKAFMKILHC
pKi: −log10 of the molar value.
Outcome Measure: pKi

>>> print(df.to_string())
                                   molecule                    tested_system  outcome_measure  recorded_result
0  O=C(c1cccc(CN2CCN3c4ccccc4OCC3C2)c1)N1CCc2ccccc21 (centres unmarked) [Compound 14]  dopamine D2 (Rattus norvegicus)              pKi           < 6.00
1  O=C(c1cccc(CN2CCN3c4ccccc4OCC3C2)c1)N1CCCCC1 (centres unmarked) [Compound 13]  dopamine D2 (Rattus norvegicus)              pKi           < 6.00

###

Molecular target: serotonin 5-HT1A (Rattus norvegicus)
Sequence (P19327 1-422): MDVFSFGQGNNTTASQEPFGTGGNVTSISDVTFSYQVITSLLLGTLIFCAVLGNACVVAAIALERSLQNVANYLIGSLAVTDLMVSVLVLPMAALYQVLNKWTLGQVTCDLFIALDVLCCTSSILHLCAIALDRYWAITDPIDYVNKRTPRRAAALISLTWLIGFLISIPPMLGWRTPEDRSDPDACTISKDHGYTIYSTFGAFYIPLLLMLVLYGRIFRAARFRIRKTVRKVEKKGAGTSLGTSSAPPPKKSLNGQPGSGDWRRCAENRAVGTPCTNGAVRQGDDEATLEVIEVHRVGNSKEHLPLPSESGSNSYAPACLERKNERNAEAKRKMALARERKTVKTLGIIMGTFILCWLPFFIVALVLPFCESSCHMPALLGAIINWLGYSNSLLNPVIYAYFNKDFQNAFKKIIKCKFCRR
Outcome Measure: Ki (nM)

>>> df
                     substance_smiles  unit_of_measure  recorded_result
0  Cc1ccc(N(CC2=NCCN2)c2cccc(O)c2)cc1               nM               59
